// provenance: patent US11479565B2

Assay Remarks: log P[n] by HPLC on reversed-phase column (C18), LC-UV in the neutral range
Assay type: physicochemical
Condition Details: 79 mg/l ammonium carbonate in water and acetonitrile, gradient 10% to 95% acetonitrile, EEC Directive 79/831 Annex V.A8
Rule: chromatographic logP below 3 gives condition met, anything at or above gives condition not met.

As a guide, the following entries are already answered.
| Compound | Category |
| --- | --- |
| CCSc1c(-c2nc3cc(C(F)(F)C(F)(F)F)nnc3n2C)nc(-c2ccc(C#N)cn2)n1C [Example 6] | condition not met |
| CCSc1c(-c2nc3cc(C(F)(F)C(F)(F)F)nnc3n2C)nc(-c2ccc(Cl)nn2)n1C [Example 5] | condition not met |
| CCSc1c(-c2nc3cc(C(F)(F)C(F)(F)F)nnc3n2C)nc(Br)n1C [Example 2] | condition not met |
| CCS(=O)(=O)c1c(-c2nc3cc(C(F)(F)C(F)(F)F)nnc3n2C)nc(Br)n1C [Example 3] | condition met |

Here is the next item to consider.
Req: Dear reviewer, please state whether CCSc1c(-c2nc3cc(C(F)(F)C(F)(F)F)ncc3n2C)nc(Br)n1C [Example 4] has chromatographic logP strictly beneath 3.
Resp: condition not met

====

Assay Remarks: log P[a] by HPLC on reversed-phase column (C18), LC-UV in the acidic range
Type: physicochemical
Condition Details: 0.9 ml/l formic acid in water and 1.0 ml/l formic acid in acetonitrile, gradient 10% to 95% acetonitrile, EEC Directive 79/831 Annex V.A8
Method: The log values were determined according to EEC Directive 79/831 Annex V.A8 by HPLC (high-performance liquid chromatography) on a reversed-phase column (C18) using the following methods: The log P[a] value is determined by LC-UV measurement in the acidic range using 0.9 […] formic acid in water and 1.0 ml/l formic acid in acetonitrile as mobile phases (linear gradient from 10% acetonitrile to 95% acetonitrile). […]
Rule: chromatographic logP below 4 gives true, anything at or above gives false.

| Molecule | Category |
| --- | --- |
| CCSc1c(-c2nc3cc(C(F)(F)C(F)(F)F)nnc3n2C)nc(-c2ccc(Cl)nn2)n1C [Example 5] | false |
| CCSc1c(-c2nc3cc(C(F)(F)F)nnc3n2C)nc(Br)n1C [Example 1] | true |
| CCSc1c(-c2nc3cc(C(F)(F)C(F)(F)F)ncc3n2C)nc(Br)n1C [Example 4] | true |
| CCSc1c(-c2nc3cc(C(F)(F)C(F)(F)F)nnc3n2C)nc(-c2ccc(C#N)cn2)n1C [Example 6] | false |
| CCS(=O)(=O)c1c(-c2nc3cc(C(F)(F)C(F)(F)F)nnc3n2C)nc(Br)n1C [Example 3] | true |

Here is the next item to consider.
Req: Dear reviewer, please state whether CCSc1c(-c2nc3cc(C(F)(F)C(F)(F)F)nnc3n2C)nc(Br)n1C [Example 2] has chromatographic logP strictly beneath 4.
Resp: true
